Reported Kd values for a set of binders
- Tested target: T1, EsCas13d, nuclease-dead (Eubacterium siraeum, UniProt B0MS50, R295A;H300A;R849A;H854A)
- T1 sequence: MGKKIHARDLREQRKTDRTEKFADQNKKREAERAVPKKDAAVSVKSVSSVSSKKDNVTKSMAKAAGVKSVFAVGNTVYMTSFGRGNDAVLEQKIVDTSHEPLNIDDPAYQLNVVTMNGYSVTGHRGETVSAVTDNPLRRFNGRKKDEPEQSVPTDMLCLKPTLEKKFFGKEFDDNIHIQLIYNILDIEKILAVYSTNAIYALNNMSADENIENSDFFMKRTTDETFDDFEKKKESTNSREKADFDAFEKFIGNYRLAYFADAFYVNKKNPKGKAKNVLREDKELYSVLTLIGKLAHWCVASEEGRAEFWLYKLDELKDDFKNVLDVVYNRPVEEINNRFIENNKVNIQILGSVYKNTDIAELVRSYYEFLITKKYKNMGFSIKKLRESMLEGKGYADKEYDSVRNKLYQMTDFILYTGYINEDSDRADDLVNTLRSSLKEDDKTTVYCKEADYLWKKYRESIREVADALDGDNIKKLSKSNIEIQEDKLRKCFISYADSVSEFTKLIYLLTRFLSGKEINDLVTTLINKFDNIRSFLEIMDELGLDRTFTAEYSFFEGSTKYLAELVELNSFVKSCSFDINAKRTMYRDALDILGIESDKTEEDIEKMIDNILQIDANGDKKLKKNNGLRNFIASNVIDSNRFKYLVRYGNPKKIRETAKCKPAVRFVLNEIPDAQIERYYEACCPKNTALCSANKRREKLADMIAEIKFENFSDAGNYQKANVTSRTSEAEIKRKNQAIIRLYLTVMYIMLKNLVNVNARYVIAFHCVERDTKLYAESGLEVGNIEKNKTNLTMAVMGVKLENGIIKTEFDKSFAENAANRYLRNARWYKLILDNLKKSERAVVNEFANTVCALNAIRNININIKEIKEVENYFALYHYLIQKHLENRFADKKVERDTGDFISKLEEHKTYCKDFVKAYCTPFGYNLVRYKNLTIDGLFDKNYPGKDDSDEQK
- Assay: crRNA (strand 1, pre-loaded); Mg2+; 40 mM Tris-HCl pH 7.5, 150 mM NaCl, 6 mM MgCl2, 1 mM DTT, 0.1% Tween-20, 0.2 mg/ml BSA; 25 C; 10 min per concentration, then washed
- Test parameters: tags: His6-TwinStrep-SUMO cleaved; N-terminal SNAP kept (SNAP-Surface 488); label: 3' end held by stalled T7 RNA polymerase
Number in nM, nothing else.

Quick one: Kd for target 2 MT 5'PFS GUU 3'PFS UGU (mixed) RNA 1: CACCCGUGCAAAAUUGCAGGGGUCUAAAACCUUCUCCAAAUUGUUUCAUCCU RNA 2: GGGAAUGGAUCCACAUCUACGAAUUCGUUAGGAUGAAACAAUUUGGAGAAGUGUAGAUCGGAAGAGCACACGU ?
21

Lab note: next binder to report on.
Quick one: Kd for target 3 G3U,U22A (mixed) RNA 1: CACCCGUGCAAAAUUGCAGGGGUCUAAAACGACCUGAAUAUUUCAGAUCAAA RNA 2: GGGAAUGGAUCCACAUCUACGAAUUCGUUAUUGAUCUGAAAUAUUCAGUUCUGCAGAUCGGAAGAGCACACGU ?
20.6
